Values from ChEMBL document CHEMBL6074718

molecular target: Protein disulfide-isomerase (Homo sapiens); test: Inhibition of recombinant PDI (unknown origin) preincubated for 1 hrs followed by bovine insulin addition and measured after 80 mins by absorbance based reductase assay
Sequence (P07237 whole entry): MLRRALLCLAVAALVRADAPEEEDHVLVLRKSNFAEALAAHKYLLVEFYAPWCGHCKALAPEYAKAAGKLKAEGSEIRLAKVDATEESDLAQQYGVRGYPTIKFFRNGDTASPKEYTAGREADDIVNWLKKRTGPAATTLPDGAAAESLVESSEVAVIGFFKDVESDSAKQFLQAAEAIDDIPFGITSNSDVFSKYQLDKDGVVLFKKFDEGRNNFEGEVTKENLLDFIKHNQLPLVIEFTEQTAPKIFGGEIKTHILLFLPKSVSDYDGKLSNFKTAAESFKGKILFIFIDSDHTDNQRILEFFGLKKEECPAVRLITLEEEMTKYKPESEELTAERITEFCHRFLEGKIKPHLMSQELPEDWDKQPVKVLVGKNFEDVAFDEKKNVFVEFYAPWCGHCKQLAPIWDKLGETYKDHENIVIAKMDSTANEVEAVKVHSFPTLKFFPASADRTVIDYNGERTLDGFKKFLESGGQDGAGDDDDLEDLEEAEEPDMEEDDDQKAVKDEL
Grouping rule (IC50): low value (below 800 nM), medium value (800 nM to below 2000 nM), high value (2000 nM or more)

compound	assignedCategory
C=C(C(=O)Nc1ccc(OC)c(OC)c1)C(F)(F)F	high value

*Q* Which class is correct for the following compound? `C#CC(=O)Nc1cc(OC)c(OC)cc1C(=O)OC`
*A* medium value

*Q* Which band does COC(=O)c1cc(OC)c(OC)cc1NC(=O)C12CC1C2 (configuration not stated) fall in?
*A* high value

*Q* Band for the recorded IC50 of COC(=O)c1cc(OC)c(OC)cc1NC(=O)C1CO1 (configuration not stated) ?
*A* high value

*Q* Record `C=CS(=O)(=O)Oc1cc(OC)c(OC)cc1C(=O)OC` — which class?
*A* medium value

*Q* Form: Item = `C=C(C(=O)Nc1ccc(C(=O)c2ccccc2)cc1)C(F)(F)F` ; Class = ?
*A* low value

*Q* Which of the defined bands does the recorded IC50 of `C=C(C(=O)Nc1ccc(CN2CCOCC2)cc1)C(F)(F)F` sit within?
*A* medium value

*Q* Dear colleague, I would appreciate it if you could identify the bin for `C=C(C(=O)Nc1cc(OC)c(OC)cc1C(=O)OC)C(F)(F)F` and reply at your convenience.
*A* high value

*Q* Which class does `C=C(C(=O)Nc1ccc(OCCC)c(OC)c1)C(F)(F)F` fall in?
*A* medium value

*Q* Hi, small favor: classify `C=C(C(=O)Nc1cc(OC)c(OC)c(OC)c1)C(F)(F)F` by its IC50 when you get a moment.
*A* low value

*Q* Hi, small favor: classify `COC(=O)/C=C/C(=O)Nc1cc(OC)c(OC)cc1C(=O)OC` by its IC50 when you get a moment.
*A* high value
